target: His-tagged WT1RMF/HLA-A2 complex (human); assay: SPR, Biacore 8K; antibody captured on Protein A chip, His-tagged complex as analyte; 1:1 Langmuir fit
readout-name: koff (s⁻¹)

>  <binder>
7B9-IgG1-SI (antibody, V domains shown, VH and VL joined to IgG1 constant regions with SI mutations (S239D and I332E, EU numbering) in the Fc; also called 7B9-IgGI-SI) VH: EVQLVESGGGVVQPGGSLRLSCAASGFTFDDYAMHWVRQAPGKGLEWVSLISGDDGSTYYADSMKGRITISRDNSKNSLYLQMNSLRTEDTAMYYCAKASYGSGSYLYNYGMDVWGQGTTVTVFS VL: DIQLTQSPSSLSASVGDRVTITCQASQDIINYLNWYQQKPGKAPKLLIYDTSNLETGVPSRFSGSGSGTDFAFTINSLQPEDIATYYCQQFVNLPLTFGGGTKVEIK

>  <measurement-units>
s⁻¹

>  <reading>
0.00185

$$$$
>  <binder>
1E9-IgG1-SI (antibody, V domains shown, VH and VL joined to IgG1 constant regions with SI mutations (S239D and I332E, EU numbering) in the Fc; also called 1E9-IgGI-SI) VH: EVQMVESGGDVVRPGGSLRLSCAASGFMFDDYGMSWVRHVQGKGLEWVSGIDWNGDSTGYADSVKGRFTISRDNAKNSLYLQMNSLRAEDTALYYCARDQGIAVAGPYNYYYGMDVWGQGTTVTVSS VL: EIVLTQSPATLSLSPGERATLSCRASQSVSSYLAWYQEKPGQAPRLLIFDASNRATGIPARFSGSGSGTDFTLTISSLEPEDFAVYYCQQRSNWPFTFGPGTRVEIK

>  <measurement-units>
s⁻¹

>  <reading>
0.00164

$$$$
>  <binder>
3A6-IgG1-SI (antibody, V domains shown, VH and VL joined to IgG1 constant regions with SI mutations (S239D and I332E, EU numbering) in the Fc) VH: QVQLQESGPGMVKPSETLSLTCTVSGGSISYNYWSWIRQPPGKGLEWIGYIYHSGTTKYNPSLKSRVTMSVDTSKNHFSLKLNSVTAADTAVYYCARHEDYWFFDLWGRGTLVTVSS VL: DIQMTQSPSSLSASVGDRVTITCRASQGISNYLVWFQQKPGKAPKSLIYAASILQSGVPSKFSGSGSGTDFTLTINSLQPEDFATYYCQQYNTYPFTFGPGTKVDIK

>  <measurement-units>
s⁻¹

>  <reading>
0.0204

$$$$
